Target: T1, human CX3CR1 (human, UniProt P49238 1-355)
T1 construct: overexpressed on CHO, BA/F3 or HEK293T cells; also called huCX3CR1; hCX3CR1
T1 sequence: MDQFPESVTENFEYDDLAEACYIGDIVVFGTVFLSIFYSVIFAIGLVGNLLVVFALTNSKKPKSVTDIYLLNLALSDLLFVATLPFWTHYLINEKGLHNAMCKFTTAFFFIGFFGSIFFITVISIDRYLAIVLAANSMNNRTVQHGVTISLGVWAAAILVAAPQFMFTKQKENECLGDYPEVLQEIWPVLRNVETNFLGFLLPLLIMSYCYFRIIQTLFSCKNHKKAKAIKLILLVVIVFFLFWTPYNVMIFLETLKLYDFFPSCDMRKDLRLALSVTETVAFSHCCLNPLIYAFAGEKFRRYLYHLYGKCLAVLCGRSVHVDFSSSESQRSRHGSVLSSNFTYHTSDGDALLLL
Assay: A647-fractalkine competition FACS, HEK293T human CX3CR1
binders and their reported pIC50
Scale for pIC50: -log10 of concentration given in mol/L; no unit attached.

Sample records with pIC50:
>  <BINDER>
CX3CR1BIIPMP61G3 (VHH, also called 61G03; not shown: C-terminal c-myc and His6 tags) VHH: KVQLVESGGGSMQAGESLRLSCAASGSIFSSNAMAWYRQAPGKQRDLVAAINSVGITKYADSVKGRFTISRDNAKNTVYLQMMSLKPEDTAVYYCTSDPRRGWDTRYWGQGTQVTVSS

>  <pIC50>
7.22

$$$$
>  <BINDER>
CX3CR1BIIPMP54D8 (VHH, also called 54D08; CX3CR1BII54D08; not shown: C-terminal c-myc and His6 tags) VHH: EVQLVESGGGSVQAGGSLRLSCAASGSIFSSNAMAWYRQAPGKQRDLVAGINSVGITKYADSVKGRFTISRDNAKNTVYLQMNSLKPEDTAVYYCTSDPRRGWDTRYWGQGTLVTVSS

>  <pIC50>
7.08

$$$$
>  <BINDER>
CX3CR1BIIPMP54D5 (VHH, also called 54D05; CX3CR1BII54D5; not shown: C-terminal c-myc and His6 tags) VHH: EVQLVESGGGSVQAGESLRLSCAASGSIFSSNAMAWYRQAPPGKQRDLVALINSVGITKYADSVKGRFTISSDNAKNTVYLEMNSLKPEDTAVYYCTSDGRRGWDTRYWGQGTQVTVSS

>  <pIC50>
8.28

$$$$
>  <BINDER>
CX3CR1BIIPMP61E2 (VHH, also called 61E02; not shown: C-terminal c-myc and His6 tags) VHH: EVQLVESGGGSVQAGESLRLSCAASGSIFSSNAMAWYRQAPGKQRDLVAGINSVGITKYADSVKGRFTISRDNAKNTVYLQMNSLKPEDMAVYYCTSDPRRGWDTRYWGQGTQVTVSS

>  <pIC50>
7.09

$$$$

Q: Any idea what its pIC50 is? The binder is CX3CR1BIIPMP54A7 (VHH, also called 54A07; not shown: C-terminal c-myc and His6 tags) VHH: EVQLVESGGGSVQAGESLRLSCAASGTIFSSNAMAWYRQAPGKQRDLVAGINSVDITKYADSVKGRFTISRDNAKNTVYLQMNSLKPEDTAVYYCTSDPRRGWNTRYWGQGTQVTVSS
Result: 7.64

Q: Now consider CX3CR1BIIPMP66B02 (VHH, alexa647 label where used as labeled competitor (Table 23), also called CX3CR1BII66B02; C100CX3CR1BII66B02; not shown: C-terminal c-myc and His6 tags) VHH: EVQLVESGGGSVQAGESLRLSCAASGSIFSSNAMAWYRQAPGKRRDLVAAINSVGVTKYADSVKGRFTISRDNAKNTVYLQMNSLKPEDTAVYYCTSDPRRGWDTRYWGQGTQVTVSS and answer again.
Result: 8.60

Q: Now consider CX3CR1BIIPMP61B2 (VHH, also called 61B02; not shown: C-terminal c-myc and His6 tags) VHH: EVQLVESRGGSVQAGASLRLSCAASGSIFSSNAMAWYRQAPGKQRDLVAVINTVGITKYADSVKGRFTISRDNAKNTVYLQMNSLKPEDTAVYYCTSDARRGWDTRYWGQGTQVTVSS and answer again.
Result: 8.00

Q: Now consider CX3CR1BIIPMP54H1 (VHH, also called 54H01; not shown: C-terminal c-myc and His6 tags) VHH: EVQLVESGGGSVQAGESLRLSCAASGTIFSSNAMAWYRQAPGKQRDLVAGINSVDITKYADSVKGRFTVSRDNAKNTVYLQMNSLKPEDTAVYYCTSDPRRGWNTRYWGQGTQVTVSS and answer again.
Result: 8.00

Q: Now consider CX3CR1BIIPMP54A12 (VHH, also called CX3CR1BII54A12; not shown: C-terminal c-myc and His6 tags) VHH: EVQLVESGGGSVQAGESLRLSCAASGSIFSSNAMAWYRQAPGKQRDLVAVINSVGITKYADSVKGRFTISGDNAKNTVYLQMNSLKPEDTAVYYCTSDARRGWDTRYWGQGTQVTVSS and answer again.
Result: 8.17
